- assay.name: chemical genetic growth profiling, strain panel (AID 1159580);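 note: tested at 20 µM; growth read once vehicle control cultures reached saturation at 30 °C; 1 = growth at the plate median or of vehicle wells; lower values mean less growth of the strain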
- condition.description: S. cerevisiae deletion strains, growth OD, locus YNR049C, strain mso1
Among all 5,500 compounds or so, about 2,000 (36%) were called active. About 18% were inconclusive and are not listed. Cut-off read from the data, not from the text of the source: active = normalized growth mostly below about 0.91 (no sharp cut-off); inconclusive = no clear call, values can overlap the other calls; inactive = mostly above about 0.92. The list shows a part of the results. Where a SMILES comes first, the peptide text is derived from it. Bridges are numbered along the chain shown (N, C = ends). [ ]: non-standard residue; d: D form. The star is where a group is joined. ξ: configuration not given here. ξDab(CH2SO3H) = NC(CCNCS(=O)(=O)O)C(=O)O; Heptanoyl(6-Me) = CC(C)CCCCC(=O)*; Dab = NCC[CH](N)C(=O)O
Outcome codes: true = active, false = inactive

compound	class.name
COc1cccc2c1C(=O)c1c(O)c3c(c(O)c1C2=O)C[C@@](O)(C(=O)CO)C[C@@H]3O[C@H]1C[C@H](N)[C@@H](O)[C@H](C)O1	false
OC(CCN1CCCC1)(c1ccccc1)C1CCCCC1 (stereo not given)	false
Cc1cc(O)ccc1Cl	false
CCN1C[C@]2(OC(=O)c3ccccc3NC(C)=O)CCC(OC)[C@]34C1[C@H](CC23)[C@@]1(O)CC(OC)[C@H]2CC4C1(O)[C@H]2OC (stereo not given in full)	false
C#C[C@]1(O)CCC2C3CCC4=CC(=O)CC[C@@H]4C3CC[C@@]21C (stereo not given in full)	false
COc1c(-c2coc3cc4c(cc3c2=O)CC(O)C(C)(C)O4)ccc2c1C=CC(C)(C)O2 (stereo not given)	false
O=c1ccc2ccc(O)cc2o1	false
COc1cccc2c1C(=O)c1c(O)c3c(c(O)c1C2=O)C[C@@](O)(C(=O)CO)C[C@@H]3OC1C[C@H](N)[C@H](O)[C@H](C)O1 (stereo not given in full)	true
COc1cc(C(=O)NCCCCCC(=O)O)cc(OC)c1OC	false
Cc1cc(O)cc(C)c1Cl	false
COc1ccc2c(c1)c(CC(=O)OCC(=O)O)c(C)n2C(=O)c1ccc(Cl)cc1	false
Cc1cc(O)cc(O)c1C(=O)O	false
COc1cccc2c1C(=O)c1c(O)c3c(c(O)c1C2=O)C[C@@](O)(C(C)=O)C[C@@H]3O[C@H]1C[C@H](N)[C@H](O)[C@H](C)O1	false
CCC(C)C1NC(=O)C(CCNCS(=O)(=O)O)NC(=O)C(NC(=O)C(CCNCS(=O)(=O)O)NC(=O)C(NC(=O)C(CCNCS(=O)(=O)O)NC(=O)CCCCC(C)C)C(C)O)CCNC(=O)C(C(C)O)NC(=O)C(CCNCS(=O)(=O)O)NC(=O)C(CCNCS(=O)(=O)O)NC(=O)C(C(C)CC)NC1=O (stereo not given) ({Heptanoyl(6-Me)}-[ξDab(CH2SO3H)]T[ξDab(CH2SO3H)][Dab][ξDab(CH2SO3H)]II[ξDab(CH2SO3H)][ξDab(CH2SO3H)]T; lactam 4-C; configuration not given here)	false
CC1OC(=O)C(C(C)C)NC(=O)C(C(C)C)OC(=O)C(C(C)C)NC(=O)C(C)OC(=O)C(C(C)C)NC(=O)C(C(C)C)OC(=O)C(C(C)C)NC(=O)C(C)OC(=O)C(C(C)C)NC(=O)C(C(C)C)OC(=O)C(C(C)C)NC1=O (stereo not given)	true

###

Recorded measurements of normalized growth, one per entry
- assay.name: chemical genetic growth profiling, strain panel (AID 1159580);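 note: tested at 20 µM; growth read once vehicle control cultures reached saturation at 30 °C; 1 = growth at the plate median or of vehicle wells; lower values mean less growth of the strain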
- condition.description: S. cerevisiae deletion strains, growth OD, locus YER016W, strain bim1, active compounds read low
Among all 5,500 compounds or so, about 2,000 (36%) were called active. About 18% were inconclusive and are not listed. The list shows a part of the results.

molecule	normalized growth
NC(N)=N/N=C/c1c(Cl)cccc1Cl	0.938 (inactive)
COc1cccc2c1C(=O)c1c(O)c3c(c(O)c1C2=O)C[C@@](O)(C(=O)CO)C[C@@H]3O[C@H]1C[C@H](N)[C@@H](O)[C@H](C)O1	0.862 (active)
C#C[C@]1(O)CCC2C3CCC4=C(CCC(=O)C4)C3CC[C@@]21C (stereo partly drawn)	0.976 (inactive)
C[C@]12CCC(=O)C=C1CCC1C2[C@@H](O)C[C@@]2(C)C1CC[C@]2(O)C(=O)CO (stereo partly drawn)	0.99 (inactive)
Nc1ccc(S(=O)(=O)c2ccc(N)cc2)cc1	0.991 (inactive)
COc1cccc2c1C(=O)c1c(O)c3c(c(O)c1C2=O)C[C@@](O)(C(=O)CO)C[C@@H]3OC1C[C@H](N)[C@H](O)[C@H](C)O1 (stereo partly drawn)	0.481 (active)
CC1(C)CC(O)C2(C)CCC3(C)C(=CCC4C5(C)CCC(O)C(C)(CO)C5CCC43C)C2C1 (stereo not drawn)	1.03 (inactive)
O=C(O)CC(O)(CC(=O)O)C(=O)O	1.01 (inactive)
CC(=O)NC(C(=O)O)C(C)(C)SN=O (stereo not drawn)	0.991 (inactive)
C#C[C@]1(O)CCC2C3CCC4=CC(=O)CC[C@@H]4C3CC[C@@]21C (stereo partly drawn)	0.98 (inactive)
FC(F)(F)c1ccccc1-n1ccnc1	1.01 (inactive)
COc1ccc2c(c1)c(CC(=O)OCC(=O)O)c(C)n2C(=O)c1ccc(Cl)cc1	1.01 (inactive)
COc1cccc2c1C(=O)c1c(O)c3c(c(O)c1C2=O)C[C@@](O)(C(C)=O)C[C@@H]3O[C@H]1C[C@H](N)[C@H](O)[C@H](C)O1	0.993 (inactive)
C#C[C@]1(OC(C)=O)CCC2C3CCC4=C/C(=N\O)CCC4C3CC[C@@]21CC (stereo partly drawn)	0.599 (active)
CC1(C)CC[C@]2(C(=O)O)CC[C@]3(C)C(=CCC4[C@@]5(C)CC[C@H](O)[C@@](C)(CO)C5CC[C@]43C)C2C1 (stereo partly drawn)	1.03 (inactive)
C[C@@H]1OC(O[C@H]2C(O[C@H]3CC[C@@]4(C)C(CC[C@]5(C)C4CC=C4C6CC(C)(C)CC[C@]6(C(=O)O)CC[C@]45C)[C@]3(C)CO)OC[C@H](O)[C@@H]2O)[C@H](O)[C@H](O)[C@H]1O (stereo partly drawn)	0.059 (active)
CC(=O)O[C@H]1CC[C@@]2(C)C(CC[C@]3(C)C2CC=C2C4CC(C)(C)CC[C@]4(C)CC[C@]23C)C1(C)C (stereo partly drawn)	0.992 (inactive)
COc1ccc2[nH]cc(CCN)c2c1	0.991 (inactive)

###

- assay.name: chemical genetic growth profiling, strain panel (AID 1159580);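 note: tested at 20 µM; growth read once vehicle control cultures reached saturation at 30 °C; 1 = growth at the plate median or of vehicle wells; lower values mean less growth of the strain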
- condition.description: S. cerevisiae deletion strains, growth OD, locus YLR102C, strain apc9, active compounds read low
Among all 5,500 compounds or so, about 2,000 (36%) were called active. Roughly 18% stayed inconclusive and do not appear here. This is one part of the list.
Recorded measurements of normalized growth, one per entry
observable: normalized growth

compound	observable	result
CC(C)=CCCC1(C)C=Cc2c(O)c3c(c(CC=C(C)C)c2O1)OC12C(CC4CC1C(C)(C)OC2(C/C=C(/C)C(=O)O)C4O)C3=O (stereo not drawn)	normalized growth	1.01
Nc1ccc(S(=O)(=O)c2ccc(N)cc2)cc1	normalized growth	1.01
C/C=C(/C)C(=O)O[C@@H]1[C@H](OC(C)=O)[C@@]2(CO)C(CC1(C)C)C1=CCC3[C@@]4(C)CC[C@H](O[C@@H]5O[C@H](C(=O)O)[C@@H](O[C@@H]6O[C@H](CO)[C@@H](O)[C@H](O)[C@H]6O)[C@H](O)[C@H]5O[C@@H]5O[C@H](CO)[C@@H](O)[C@H](O)[C@H]5O)[C@](C)(CO)C4CC[C@@]3(C)[C@]1(C)C[C@H]2O (stereo partly drawn)	normalized growth	1.02
CCOP(=S)(OCC)Oc1nc(Cl)c(Cl)cc1Cl	normalized growth	0.986
COc1cc(N)c(Cl)cc1C(=O)NC1CCN(Cc2ccccc2)CC1	normalized growth	0.994
CC(C)=CCCC1(C)C=Cc2c(O)c3c(c(CC=C(C)C)c2O1)OC12C(=CC4CC1C(C)(C)OC2(C/C=C(/C)C(=O)O)C4O)C3=O (stereo not drawn)	normalized growth	0.966
COc1ccc2c(c1)c(CC(=O)OCC(=O)O)c(C)n2C(=O)c1ccc(Cl)cc1	normalized growth	1.01
N=C(N)c1ccc(OCCCCCOc2ccc(C(=N)N)cc2)cc1	normalized growth	0.939

###

- assay.name: chemical genetic growth profiling, strain panel (AID 1159580);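 note: tested at 20 µM; growth read once vehicle control cultures reached saturation at 30 °C; 1 = growth at the plate median or of vehicle wells; lower values mean less growth of the strain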
- condition.description: S. cerevisiae deletion strains, growth OD, locus YLR371W, strain rom2
Out of some 5,500 compounds screened, about 2,000 (36%) were called active. Not shown: some 18% with an inconclusive outcome. Rule as the data show it: active = normalized growth mostly below about 0.91 (no sharp cut-off); inconclusive = no clear call, values can overlap the other calls; inactive = mostly above about 0.92. This is one part of the list.
Outcome codes: label 1 for active, label 0 for inactive

compound	class.name
CC(C)=CCCC1(C)C=Cc2c(O)c3c(c(CC=C(C)C)c2O1)OC12C(=CCCC1C(C)(C)O[C@@]2(C/C=C(\C)C(=O)O)C(=O)O)C3=O (some centres undefined)	label 1
CC(=O)/C=C\[C@@H]1[C@@]2(C)CCCC(C)(C)C2CC[C@@]1(C)O (some centres undefined)	label 0
CC1=CCC2C3(C)C1=CC(=O)OC3CC1C(C)(C)CC(O)C(O)C12C (centres undefined)	label 0
Nc1ccccc1C(=O)CC(N)C(=O)O (centres undefined)	label 0
CCOC(=O)OC(C)OC(=O)C1N2C(=O)C(NC(=O)[C@H](N)c3ccccc3)C2SC1(C)C (some centres undefined)	label 0
CC(C)=CCCC1(C)C=Cc2c(O)c3c(c(CC=C(C)C)c2O1)OC12C(=CC4CC1C(C)(C)OC2(C/C=C(\C)C(N)=O)C4=O)C3=O (centres undefined)	label 0
CC(C)=CCCC1(C)C=Cc2c(O)c3c(c(CC=C(C)C)c2O1)OC12C(=CC4CC1C(C)(C)OC2(C/C=C(/C)C(=O)O)C4=O)C3=O (centres undefined)	label 0
CC(=O)NCc1c(I)c(NC(C)=O)c(I)c(C(=O)O)c1I	label 0
C=C/C(C)=C\CC1C(C)(O)CCC2C(C)(C)CCCC21C (centres undefined)	label 1
